Test system: Streptococcus pneumoniae
EXPERIMENT SUMMARY: Antimicrobial activity against tetracycline-resistant Streptococcus pneumoniae isolate 160 harboring tetM gene by CLSI dilution method
Type: functional
What log10 of MIC was measured for each of the following?
Short version: log10 scale, MIC, µg/mL.

SMILES ENTRY | log10 of MIC
CN(C)c1c2c(c(O)c3cc(F)ccc13)C(=O)C1=C(O)[C@]3(O)C(=O)C(C(N)=O)=C(O)[C@@H](N(C)C)[C@@H]3C[C@@H]1C2 | 0.60
CN(C)[C@@H]1C(O)=C(C(N)=O)C(=O)[C@@]2(O)C(O)=C3C(=O)c4c(c(Cl)c5ccc(CN6CCC6)cc5c4O)C[C@H]3C[C@@H]12 | -0.30

Give log10 of MIC for all compounds that follow.
1. CN(C)[C@@H]1C(O)=C(C(N)=O)C(=O)[C@@]2(O)C(O)=C3C(=O)c4c(c(F)c5ccc(CN6CCC6)cc5c4O)C[C@H]3C[C@@H]12
2. CN(C)c1cc(NC(=O)CNC(C)(C)C)c(O)c2c1C[C@H]1C[C@H]3[C@H](N(C)C)C(O)=C(C(N)=O)C(=O)[C@@]3(O)C(O)=C1C2=O
3. COc1c2c(c(O)c3cc(CNC(C)(C)C)ccc13)C(=O)C1=C(O)[C@]3(O)C(=O)C(C(N)=O)=C(O)[C@@H](N(C)C)[C@@H]3C[C@@H]1C2
4. CN(C)c1cccc2c(O)c3c(cc12)C[C@H]1C[C@H]2[C@H](N(C)C)C(O)=C(C(N)=O)C(=O)[C@@]2(O)C(O)=C1C3=O
5. CN(C)c1ccc2c(O)c3c(cc2c1)C[C@H]1C[C@H]2[C@H](N(C)C)C(O)=C(C(N)=O)C(=O)[C@@]2(O)C(O)=C1C3=O
6. CN(C)[C@@H]1C(O)=C(C(N)=O)C(=O)[C@@]2(O)C(O)=C3C(=O)c4c(cc5ccc(CN6CCC6)cc5c4O)C[C@H]3C[C@@H]12
7. COc1c2c(c(O)c3cc(CN(C)C)ccc13)C(=O)C1=C(O)[C@]3(O)C(=O)C(C(N)=O)=C(O)[C@@H](N(C)C)[C@@H]3C[C@@H]1C2

## Output
[-0.90, -1.81, -0.30, 0.90, 1.51, -0.60, -0.60]

----------
Test system: Pseudomonas aeruginosa
EXPERIMENT SUMMARY: Antimicrobial activity against tetracycline-susceptible Pseudomonas aeruginosa isolate 111 by CLSI dilution method
Assay type: functional
REPORTED ENDPOINT: MIC

Recorded MIC, per entry:
COMPOUND | MIC
CN(C)Cc1cccc2c(O)c3c(cc12)C[C@H]1C[C@H]2[C@H](N(C)C)C(O)=C(C(N)=O)C(=O)[C@@]2(O)C(O)=C1C3=O | > 32 µg/mL
CN(C)[C@@H]1C(O)=C(C(N)=O)C(=O)[C@@]2(O)C(O)=C3C(=O)c4c(cc5ccccc5c4O)C[C@H]3C[C@@H]12 | > 32 µg/mL

Now turn to the next compound.
## Input Identify measured MIC associated with CN(C)[C@@H]1C(O)=C(C(N)=O)C(=O)[C@@]2(O)C(O)=C3C(=O)c4c(c(OCC(O)CO)c5ccc(CN6CCC6)cc5c4O)C[C@H]3C[C@@H]12 (stereo partly drawn)
## Output > 32 µg/mL

----------
Tested on: Enterococcus faecalis
EXPERIMENT SUMMARY: Antimicrobial activity against tetracycline-resistant Enterococcus faecalis isolate 159 harboring […] gene by CLSI dilution method
Type: functional
REPORTED ENDPOINT: MIC

Recorded MIC, per entry:
MOLECULE | OBSERVED
CN(C)[C@@H]1C(O)=C(C(N)=O)C(=O)[C@@]2(O)C(O)=C3C(=O)c4c(cc5ccc(CN6CC(F)C6)cc5c4O)C[C@H]3C[C@@H]12 | 2 µg/mL
COC1CN(Cc2ccc3cc4c(c(O)c3c2)C(=O)C2=C(O)[C@]3(O)C(=O)C(C(N)=O)=C(O)[C@@H](N(C)C)[C@@H]3C[C@@H]2C4)C1 | 8 µg/mL
CN(C)[C@@H]1C(O)=C(C(N)=O)C(=O)[C@@]2(O)C(O)=C3C(=O)c4c(c(OCC(O)CO)c5ccc(CN6CCC6)cc5c4O)C[C@H]3C[C@@H]12 (stereo not given in full) | > 32 µg/mL
COc1c2c(c(O)c3cc(CN4CCC4)ccc13)C(=O)C1=C(O)[C@]3(O)C(=O)C(C(N)=O)=C(O)[C@@H](N(C)C)[C@@H]3C[C@@H]1C2 | 1 µg/mL
CN(C)Cc1ccc2c(N(C)C)c3c(c(O)c2c1)C(=O)C1=C(O)[C@]2(O)C(=O)C(C(N)=O)=C(O)[C@@H](N(C)C)[C@@H]2C[C@@H]1C3 | 2 µg/mL
CN(C)[C@@H]1C(O)=C(C(N)=O)C(=O)[C@@]2(O)C(O)=C3C(=O)c4c(cc5ccc(CN6CC(F)(F)C6)cc5c4O)C[C@H]3C[C@@H]12 | 1 µg/mL
COCCOc1c2c(c(O)c3cc(CN4CCC4)ccc13)C(=O)C1=C(O)[C@]3(O)C(=O)C(C(N)=O)=C(O)[C@@H](N(C)C)[C@@H]3C[C@@H]1C2 | 2 µg/mL
CN(C)c1c2c(c(O)c3cc(CN4CCC4)ccc13)C(=O)C1=C(O)[C@]3(O)C(=O)C(C(N)=O)=C(O)[C@@H](N(C)C)[C@@H]3C[C@@H]1C2 | 2 µg/mL
CN(C)[C@@H]1C(O)=C(C(N)=O)C(=O)[C@@]2(O)C(O)=C3C(=O)c4c(cc5ccc(CN6CCC6)cc5c4O)C[C@H]3C[C@@H]12 | 4 µg/mL

Now turn to the next molecule.
## Input Identify measured MIC associated with COc1cccc2c(O)c3c(cc12)C[C@H]1C[C@H]2[C@H](N(C)C)C(O)=C(C(N)=O)C(=O)[C@@]2(O)C(O)=C1C3=O
## Output 1 µg/mL
